src = ChEMBL document CHEMBL1121691

Molecular target: cholesterol side-chain cleavage cytochrome P450 (mitochondrial) (Bos taurus)
Experiment: Percent inhibition of cholesterol side-chain cleavage cytochrome P450 at 1 uM in bovine adrenocortical mitochondrial acetone powder preparations
Conditions: cattle
Assay readout: inhibition at 1 µM (%)

CC(C)CCNC(C)[C@H]1CC[C@H]2[C@@H]3CC=C4C[C@@H](O)CC[C@]4(C)[C@H]3CC[C@]12C (stereo partly drawn)	10
CO[C@H]1CC[C@@]2(C)C(=CC[C@H]3[C@@H]4CC[C@H](C(C)NCCC(C)C)[C@@]4(C)CC[C@@H]32)C1 (stereo partly drawn)	14
CCC(C)CNC(C)[C@H]1CC[C@H]2[C@@H]3CC=C4C[C@@H](OC)CC[C@]4(C)[C@H]3CC[C@]12C (stereo partly drawn)	12

----------
Target: cholesterol side-chain cleavage cytochrome P450 (mitochondrial) (Bos taurus, UniProt P00189)
Sequence (P00189 whole entry): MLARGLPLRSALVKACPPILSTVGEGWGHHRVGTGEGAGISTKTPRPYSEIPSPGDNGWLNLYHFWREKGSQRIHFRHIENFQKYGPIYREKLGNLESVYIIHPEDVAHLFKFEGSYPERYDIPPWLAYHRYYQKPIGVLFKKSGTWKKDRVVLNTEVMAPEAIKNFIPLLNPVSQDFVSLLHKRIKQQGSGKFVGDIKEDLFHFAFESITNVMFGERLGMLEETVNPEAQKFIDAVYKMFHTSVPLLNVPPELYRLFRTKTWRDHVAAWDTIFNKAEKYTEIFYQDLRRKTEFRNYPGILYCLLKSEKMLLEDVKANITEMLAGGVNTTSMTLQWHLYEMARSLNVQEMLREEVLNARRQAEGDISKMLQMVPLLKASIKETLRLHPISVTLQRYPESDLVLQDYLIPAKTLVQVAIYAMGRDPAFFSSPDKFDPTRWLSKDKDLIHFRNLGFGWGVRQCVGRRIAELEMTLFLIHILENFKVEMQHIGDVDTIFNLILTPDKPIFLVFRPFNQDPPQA
Assay: Percent inhibition of cholesterol side-chain cleavage cytochrome P450 at 100 uM in bovine adrenocortical mitochondrial acetone powder preparations
Conditions: cattle
Assay readout: inhibition at 100 µM (%)

CO[C@H]1CCC2(C)C(=CCC3C2CCC2(C)C3CC[C@@H]2N(C)CCCC(C)C)C1 (some centres undefined)	86
CC(C)CCNC(C)[C@H]1CC[C@H]2[C@@H]3CCC4C[C@@H](O)CC[C@]4(C)[C@H]3CC[C@]12C (some centres undefined)	28
CO[C@H]1CC[C@@]2(C)C(=CC[C@H]3[C@@H]4CC[C@H](C(C)NCCC(C)C)[C@@]4(C)CC[C@@H]32)C1 (some centres undefined)	99
CC(C)CCCN(C)[C@H]1CCC2C3CC=C4C[C@@H](O)CCC4(C)C3CCC21C (some centres undefined)	78
